Biological target: wild-type hPXR (CYP3A4 promoter) (Homo sapiens, UniProt O75469)
Sequence (O75469 1-434): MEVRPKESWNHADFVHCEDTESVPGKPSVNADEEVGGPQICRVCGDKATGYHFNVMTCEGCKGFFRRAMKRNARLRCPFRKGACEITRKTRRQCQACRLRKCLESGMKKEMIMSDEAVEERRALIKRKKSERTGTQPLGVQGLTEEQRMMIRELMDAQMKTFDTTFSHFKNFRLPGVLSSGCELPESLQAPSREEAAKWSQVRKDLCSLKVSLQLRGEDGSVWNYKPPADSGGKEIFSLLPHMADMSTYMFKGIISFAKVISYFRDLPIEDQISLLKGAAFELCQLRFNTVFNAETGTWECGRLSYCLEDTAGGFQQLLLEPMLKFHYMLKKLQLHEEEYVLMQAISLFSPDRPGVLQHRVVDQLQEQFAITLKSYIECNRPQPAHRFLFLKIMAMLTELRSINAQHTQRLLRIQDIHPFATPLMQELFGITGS
Assay: CYP3A4 promoter luciferase reporter assay in HepG2 cells, wild-type hPXR
Type: cell-based
Conditions: human
Endpoint: fold induction at 24 h, 10 μM
// print number alone

Consider Cc1ccccc1N1C(=O)c2cc(S(N)(=O)=O)c(Cl)cc2NC1C (stereo not shown) . Its measured fold induction at 24 h, 10 μM is 9.83

====

Target: hPXR R410A mutant (CYP3A4 promoter) (Homo sapiens, UniProt O75469, R410A)
Sequence (O75469 1-434 R410A): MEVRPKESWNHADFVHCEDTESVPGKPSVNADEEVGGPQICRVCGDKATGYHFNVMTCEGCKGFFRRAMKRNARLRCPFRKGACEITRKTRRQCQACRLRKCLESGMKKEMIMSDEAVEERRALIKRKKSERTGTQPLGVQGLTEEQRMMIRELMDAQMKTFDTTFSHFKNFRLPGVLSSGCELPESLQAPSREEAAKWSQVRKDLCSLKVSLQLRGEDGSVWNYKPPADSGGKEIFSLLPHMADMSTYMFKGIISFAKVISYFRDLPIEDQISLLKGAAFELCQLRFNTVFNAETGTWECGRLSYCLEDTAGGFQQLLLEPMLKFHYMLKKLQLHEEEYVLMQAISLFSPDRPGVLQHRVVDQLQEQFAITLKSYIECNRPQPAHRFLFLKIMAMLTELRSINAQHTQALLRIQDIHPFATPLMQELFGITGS
Experiment: CYP3A4 promoter luciferase reporter assay in HepG2 cells, hPXR mutant R410A
Assay type: cell-based
Details: human
Endpoint: fold induction at 24 h, 10 μM
Reply briefly: the number, and no unit.

The recorded fold induction at 24 h, 10 μM for entry Cc1ccccc1N1C(=O)c2cc(S(N)(=O)=O)c(Cl)cc2NC1C (stereo not shown) [Metolazone] equals 1.96

====

Target: wild-type hPXR (CYP3A4 promoter) (Homo sapiens, UniProt O75469)
Sequence (O75469 1-434): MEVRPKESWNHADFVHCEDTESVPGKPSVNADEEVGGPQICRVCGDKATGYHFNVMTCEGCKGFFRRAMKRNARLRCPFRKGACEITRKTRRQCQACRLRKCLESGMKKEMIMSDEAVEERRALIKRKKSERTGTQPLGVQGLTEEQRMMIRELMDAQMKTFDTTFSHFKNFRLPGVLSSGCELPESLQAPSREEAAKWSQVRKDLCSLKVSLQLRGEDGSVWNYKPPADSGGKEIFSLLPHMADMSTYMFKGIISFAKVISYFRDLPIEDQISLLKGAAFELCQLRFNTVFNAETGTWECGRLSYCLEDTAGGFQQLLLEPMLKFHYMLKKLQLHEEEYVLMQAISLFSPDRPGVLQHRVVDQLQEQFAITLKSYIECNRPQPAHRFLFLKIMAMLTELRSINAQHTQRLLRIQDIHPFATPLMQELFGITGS
Assay: CYP3A4 promoter luciferase reporter assay in HepG2 cells, wild-type hPXR
Type: cell-based
Settings: human
Endpoint: fold induction at 24 h, 20 μM
Output spec: single numeric token, no unit.

Bench note, wild-type hPXR (CYP3A4 promoter) (Homo sapiens, UniProt O75469): Cc1ccccc1N1C(=O)c2cc(S(N)(=O)=O)c(Cl)cc2NC1C (stereo not shown) , fold induction at 24 h, 20 μM reads 10.6
